Measured values drawn from the RNAGym collection of RNA variant scans (doi:10.7554/elife.90254) for this set.

B1: LINE1-full (parent)
chain: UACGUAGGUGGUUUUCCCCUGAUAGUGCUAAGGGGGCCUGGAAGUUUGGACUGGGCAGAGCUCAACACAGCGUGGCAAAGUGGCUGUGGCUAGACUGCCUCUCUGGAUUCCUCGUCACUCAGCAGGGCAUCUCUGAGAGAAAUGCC

Variants of: B1
Assay protocol: self-cleavage, relative activity (ratio to wild type); higher = more cleavage; in vitro, sequencing; the parent is a self-cleaving ribozyme

| Mutant label | self-cleavage |
| --- | --- |
| A78U C84A | 0.18 |
| A57U U143A | 0.11 |
| A78G A94U | 0.19 |
| U26C A138G | 1.78 |
| U47G A64G | 0.23 |
| G55U A142G | 0.11 |
| U13C U39A | 1.33 |
| U45A A136G | 2 |
| G33A A136U | 1.69 |
| U119G C146U | 1.86 |
| C103U A117C | 2.49 |
| A140G A141G | 0.53 |
| U87C U134C | 0.11 |
| A65U U143C | 0.24 |
